Target of assay: T1, Ac-pYEEIE-NH2 (SMILES CC[C@H](C)[C@H](NC(=O)[C@H](CCC(=O)O)NC(=O)[C@H](CCC(=O)O)NC(=O)[C@H](Cc1ccc(OP(=O)(O)O)cc1)NC(C)=O)C(=O)N[C@@H](CCC(=O)O)C(N)=O)
T1 chain: Ac-[pY]EEIE-NH2
Test method notes: competition binding assay (SH2scan, qPCR)
Non-standard residues stand in square brackets, D forms with d. pY = N[C@@H](Cc1ccc(OP(=O)(O)O)cc1)C(=O)O
Readings of Kd for the listed binders
Give the value, in units of µM, as a plain number.

Reference set, count: 2
Binder: FES SH2 (protein) EQLWYHGAIPRAEVAELLVHSGDFLVRESQGKQEYVLSVLWDGLPRHFIIQSLDNLYRLEGEGFPSIPLLIDHLLSTQQPLTKKSGVVLHRAVPKD
Measure name: Kd
Measured number: 4.2
--
Binder: FYN SH2 (protein) AEEWYFGKLGRKDAERQLLSFGNPRGTFLIRESETTKGAYSLSIRDWDDMKGDHVKHYKIRKLDNGGYYITTRAQFETLQQLVQHYSERAAGLCCRLVVPCHKG
Measure name: Kd
Measured number: 3.3

input: Consider the binder YES SH2 (protein) AEEWYFGKMGRKDAERLLLNPGNQRGIFLVRESETTKGAYSLSIRDWDEIRGDNVKHYKIRKLDNGGYYITTRAQFDTLQKLVKHYTEHADGLCHKLTTVCPTV and give its measured Kd.
output: 3.8

input: Consider the binder PIK3R3 C-terminal SH2 (protein) WFVEDINRVQAEDLLYGKPDGAFLIRESSKKGCYACSVVADGEVKHCVIYSTARGYGFAEPYNLYSSLKELVLHYQQTSLVQHNDSLNVRLAYPV and give its measured Kd.
output: 14.9
